The reported numbers originate from the supplement of paper PMC3334620.

Biological target: Yer184c (UniProt P39961)
Sequence: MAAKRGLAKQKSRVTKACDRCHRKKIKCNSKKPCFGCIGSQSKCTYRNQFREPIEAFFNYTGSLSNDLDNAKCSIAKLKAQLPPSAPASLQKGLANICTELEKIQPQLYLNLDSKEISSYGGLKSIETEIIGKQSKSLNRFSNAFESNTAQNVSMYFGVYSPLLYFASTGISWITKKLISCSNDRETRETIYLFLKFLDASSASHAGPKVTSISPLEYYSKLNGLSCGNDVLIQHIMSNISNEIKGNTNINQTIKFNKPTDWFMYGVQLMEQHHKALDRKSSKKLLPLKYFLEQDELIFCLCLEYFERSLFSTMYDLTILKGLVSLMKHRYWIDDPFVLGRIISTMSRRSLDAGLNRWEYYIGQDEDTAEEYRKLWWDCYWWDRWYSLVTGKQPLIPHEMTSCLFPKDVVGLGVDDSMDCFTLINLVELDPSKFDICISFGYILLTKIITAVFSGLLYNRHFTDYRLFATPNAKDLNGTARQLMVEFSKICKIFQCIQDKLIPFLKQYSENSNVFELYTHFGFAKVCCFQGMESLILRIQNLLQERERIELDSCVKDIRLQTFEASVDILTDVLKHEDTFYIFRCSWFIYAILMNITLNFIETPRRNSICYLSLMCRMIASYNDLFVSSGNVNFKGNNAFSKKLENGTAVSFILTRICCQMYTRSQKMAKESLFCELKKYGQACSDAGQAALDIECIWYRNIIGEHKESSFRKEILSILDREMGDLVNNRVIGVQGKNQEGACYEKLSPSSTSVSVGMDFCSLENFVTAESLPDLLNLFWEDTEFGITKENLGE
Test: PBM E-score (8-mer binding enrichment) (E-score (-0.5 to 0.5)); higher = stronger / more preferred TF binding
Conditions: protein concentration: 100 nM; construct: GST-full length
Over roughly 33,000 sequences, “E-score (-0.5 to 0.5)” has its median near -0.016; the highest 2% begin near 0.3. This excerpt belongs to a sample that is enriched for the highest values.
Classify as follows. Reported PBM E-score greater than or equal to 0.2: Met. Reported PBM E-score below: Not met.

[[record]]
biosequence = "GCACCGGC"
label_value = "Met"

[[record]]
biosequence = "CGCGGAAA"
label_value = "Met"

[[record]]
biosequence = "CTGAAATC"
label_value = "Not met"

[[record]]
biosequence = "ACCGGAGG"
label_value = "Not met"

[[record]]
biosequence = "GCACCGGA"
label_value = "Met"

[[record]]
biosequence = "GGCGGGAA"
label_value = "Not met"

[[record]]
biosequence = "AGGAAATA"
label_value = "Met"

[[record]]
biosequence = "AGCGGAAA"
label_value = "Met"

[[record]]
biosequence = "AGCGGAAC"
label_value = "Not met"

[[record]]
biosequence = "GCCCATCC"
label_value = "Not met"

[[record]]
biosequence = "GCAGCAGC"
label_value = "Not met"

[[record]]
biosequence = "CTCTAAGC"
label_value = "Not met"

[[record]]
biosequence = "TCGATTAA"
label_value = "Not met"


====

Biological target: Yer184c (UniProt P39961)
Sequence: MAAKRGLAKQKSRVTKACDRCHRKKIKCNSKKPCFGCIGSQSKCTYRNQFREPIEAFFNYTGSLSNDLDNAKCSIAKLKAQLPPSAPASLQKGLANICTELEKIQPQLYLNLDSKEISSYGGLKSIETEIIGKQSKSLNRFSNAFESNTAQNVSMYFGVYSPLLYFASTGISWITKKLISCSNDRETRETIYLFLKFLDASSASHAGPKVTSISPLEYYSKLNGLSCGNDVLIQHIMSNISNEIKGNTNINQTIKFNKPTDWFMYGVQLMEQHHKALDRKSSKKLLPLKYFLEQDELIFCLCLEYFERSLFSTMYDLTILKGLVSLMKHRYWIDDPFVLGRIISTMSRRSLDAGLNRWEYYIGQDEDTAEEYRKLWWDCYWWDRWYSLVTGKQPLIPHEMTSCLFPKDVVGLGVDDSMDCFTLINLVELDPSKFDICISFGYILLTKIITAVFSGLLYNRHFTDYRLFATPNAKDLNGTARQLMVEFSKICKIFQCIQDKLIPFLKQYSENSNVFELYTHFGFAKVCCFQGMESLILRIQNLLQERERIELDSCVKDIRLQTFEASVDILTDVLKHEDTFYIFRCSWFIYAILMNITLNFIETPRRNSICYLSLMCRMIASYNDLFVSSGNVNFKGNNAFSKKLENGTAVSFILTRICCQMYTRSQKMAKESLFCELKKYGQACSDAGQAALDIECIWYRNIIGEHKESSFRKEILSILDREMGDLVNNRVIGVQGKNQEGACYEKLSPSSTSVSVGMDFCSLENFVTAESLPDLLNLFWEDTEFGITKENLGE
Test: PBM E-score (8-mer binding enrichment) (E-score (-0.5 to 0.5)); higher = stronger / more preferred TF binding
Details: protein concentration: 100 nM; construct: GST-full length
Over roughly 33,000 sequences, “E-score (-0.5 to 0.5)” has its median near -0.016; the highest 2% begin near 0.3. The sample as a whole holds a higher share of the highest values than the screen did.
Label no (0) if PBM E-score falls below 0.09; label yes (1) in every other case.

[[record]]
biosequence = "GTCGGCTA"
target_or_system = "Yer184c (UniProt P39961)"
label_value = "yes (1)"

[[record]]
biosequence = "ATGGACAT"
target_or_system = "Yer184c (UniProt P39961)"
label_value = "no (0)"

[[record]]
biosequence = "AGAATTTA"
target_or_system = "Yer184c (UniProt P39961)"
label_value = "yes (1)"

[[record]]
biosequence = "ATTAAAAG"
target_or_system = "Yer184c (UniProt P39961)"
label_value = "yes (1)"

[[record]]
biosequence = "TAATCTGA"
target_or_system = "Yer184c (UniProt P39961)"
label_value = "no (0)"

[[record]]
biosequence = "ACAATCGC"
target_or_system = "Yer184c (UniProt P39961)"
label_value = "no (0)"

[[record]]
biosequence = "CAATATAA"
target_or_system = "Yer184c (UniProt P39961)"
label_value = "yes (1)"

[[record]]
biosequence = "CCACAAGC"
target_or_system = "Yer184c (UniProt P39961)"
label_value = "no (0)"

[[record]]
biosequence = "GAATATAA"
target_or_system = "Yer184c (UniProt P39961)"
label_value = "no (0)"

[[record]]
biosequence = "ACAATCGG"
target_or_system = "Yer184c (UniProt P39961)"
label_value = "yes (1)"

[[record]]
biosequence = "ATTAAAAC"
target_or_system = "Yer184c (UniProt P39961)"
label_value = "yes (1)"

